# studySystem: SHP2-C SH2;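 note: peptide library displayed on the E. coli surface as eCPX fusions, selected cells deep-sequenced, score is each peptide's frequency after selection divided by its frequency in the input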
# procedureDetails: SH2 binding enrichment of the phosphorylated peptide, bacterial display (enrichment ratio); higher = better substrate or ligand; peptides without Tyr show the background
Outcome: TRUE for SH2 binding enrichment of at least 0.7; FALSE for anything lower.

Check out these entries, answers already filled in.
                    constructsequence  studysystem  categorylabel
0     NDTAGYFVIGG [SEL1L3_Y399_I401V]   SHP2-C SH2           TRUE
1      YETVKYINNER [ABCB7_Y345_F346I]   SHP2-C SH2           TRUE
2       KPNMNYDKLSQ [FLI1_Y332_R337Q]   SHP2-C SH2          FALSE
3            DLVSEYQQYQD [TUBB3_Y422]   SHP2-C SH2          FALSE
4  EKLQKYFRKNP [EHHADH_Y682_Q685K_YF]   SHP2-C SH2           TRUE

Could you please find out whether DPLLTYQFPPK [LMNA_Y481_R482Q] has SH2 binding enrichment that meets 0.7 or exceeds it?
FALSE

Could you please find out whether GASWRYRSGVS [NEU1_Y242_G243R] has SH2 binding enrichment that meets 0.7 or exceeds it?
FALSE
